Values from patent US10889611B2

observable: melting point

>>> observed_result("C[C@H](CCC(=O)OCCOCCOCCN=[N+]=[N-])C1CCC2C3CC[C@@H]4C[C@H](NC(=O)[C@H](CS)Nc5ccc([N+](=O)[O-])c6nonc56)CC[C@]4(C)C3CC[C@@]21C (stereo partly drawn)")
"68 to 69 °C"

Reported melting point for C[C@H](CCC(=O)OCCOCCOCCN=[N+]=[N-])C1CCC2C3CC[C@@H]4C[C@H](NC(=O)[C@H](Cc5ccccc5)Nc5ccc([N+](=O)[O-])c6nonc56)CC[C@]4(C)C3CC[C@@]21C (stereo partly drawn) : what is it? 65 to 66 °C

Field entry: C[C@H](CCC(=O)OCCOCCOCCN=[N+]=[N-])C1CCC2C3CC[C@@H]4C[C@H](NC(=O)C5CCCN5c5ccc([N+](=O)[O-])c6nonc56)CC[C@]4(C)C3CC[C@@]21C (stereo partly drawn) 62 to 64 °C

Proceed to C[C@H](CCC(=O)OCCOCCOCCN=[N+]=[N-])C1CCC2C3CC[C@@H]4C[C@H](NC(=O)[C@H](Cc5ccc(O)cc5)Nc5ccc([N+](=O)[O-])c6nonc56)CC[C@]4(C)C3CC[C@@]21C (stereo partly drawn) 72 to 73 °C

Also, C[C@H](CCC(=O)O)C1CCC2C3CC[C@@H]4C[C@H](NS(=O)(=O)c5c(Cl)ccc6nonc56)CC[C@]4(C)C3CC[C@@]21C (stereo partly drawn) please. 128 to 130 °C

Proceed to C[C@H](CCC(=O)O)C1CCC2C3CC[C@@H]4C[C@H](NC5=C(Cl)C(=O)c6ccccc6C5=O)CC[C@]4(C)C3CC[C@@]21C (stereo partly drawn) 120 to 122 °C

---

observable: melting point

>>> observed_result("C[C@H](CCC(=O)OCCOCCOCCN=[N+]=[N-])C1CCC2C3CC[C@@H]4C[C@H](NC(=O)[C@H](CC(=O)O)Nc5ccc([N+](=O)[O-])c6nonc56)CC[C@]4(C)C3CC[C@@]21C (stereo partly shown) [Compound 16]")
"80 to 81 °C"
>>> observed_result("C[C@H](CCC(=O)O)C1CCC2C3CC[C@@H]4C[C@H](Nc5nc6ccccc6nc5Cl)CC[C@]4(C)C3CC[C@@]21C (stereo partly shown)")
"118 to 120 °C"

Need melting point, item C[C@H](CCC(=O)OCCOCCOCCN=[N+]=[N-])C1CCC2C3CC[C@@H]4C[C@H](NC(=O)[C@H](Cc5c[nH]c6ccccc56)Nc5ccc([N+](=O)[O-])c6nonc56)CC[C@]4(C)C3CC[C@@]21C (stereo partly shown) 86 to 87 °C

Ok, now C[C@H](CCC(=O)O)C1CCC2C3CC[C@@H]4C[C@H](NC(=O)[C@@H](N)CC(=O)O)CC[C@]4(C)C3CC[C@@]21C (stereo partly shown) 158 to 160 °C

Please answer likewise for COc1ccc2c(CC(=O)N[C@@H](CC(=O)O)C(=O)O[C@@H]3CC[C@@]4(C)[C@H](CC[C@@H]5[C@@H]4CC[C@]4(C)C([C@H](C)CCC(=O)OCCOCCOCCOCCN=[N+]=[N-])CC[C@@H]54)C3)cc(=O)oc2c1 (stereo partly shown) [Compound 14] 126 to 127 °C

What do we get for COc1ccc2c(CC(=O)N[C@@H](CC(=O)O)C(=O)O[C@@H]3CC[C@@]4(C)[C@H](CC[C@@H]5[C@@H]4CC[C@]4(C)C([C@H](C)CCC(=O)OCCN=[N+]=[N-])CC[C@@H]54)C3)cc(=O)oc2c1 (stereo partly shown) [Compound 11] ? 151 to 152 °C
